Recorded Metabolic stability in human hepatic microsome by entry
# assayComment: Test 4: metabolic stability test in human hepatic microsome
# Type: in vitro ADME
# studyConditions: 0.1 mg/mL microsome, 0.1 μmol/L compound, 37° C., 30 minutes
measurementName: Metabolic stability in human hepatic microsome

itemSmiles: CCc1ncc2c(n1)CCN(CCN1CCN(c3nsc4ccccc34)CC1)C2=O
recordedMeasurement: 0.149 mL/min/mg protein
//
itemSmiles: Cc1c2c(nn1C)CCN(CCN1CCN(c3noc4ccccc34)CC1)C2=O
recordedMeasurement: <0.05 mL/min/mg protein
//
itemSmiles: Cc1noc2c1C(=O)N(CCN1CCN(c3noc4ccccc34)CC1)CC2
recordedMeasurement: <0.01 mL/min/mg protein
//
itemSmiles: CC(C)c1nc2c(o1)C(=O)N(CCN1CCC(c3noc4ccccc34)CC1)CC2
recordedMeasurement: 0.097 mL/min/mg protein
//
itemSmiles: Cn1ncc2c1CCN(CCN1CCC(c3noc4ccccc34)CC1)C2=O
recordedMeasurement: <0.05 mL/min/mg protein
//
itemSmiles: O=C1c2oc(C3CC3)nc2CCN1CCN1CCN(c2nsc3ccccc23)CC1
recordedMeasurement: 0.269 mL/min/mg protein
//
itemSmiles: Cn1ncc2c1CCN(CCN1CCN(c3nsc4ccccc34)CC1)C2=O
recordedMeasurement: <0.01 mL/min/mg protein
//
itemSmiles: Cn1ncc2c1C(=O)N(CCN1CCC(c3noc4ccccc34)CC1)CC2
recordedMeasurement: 0.019 mL/min/mg protein
//
itemSmiles: Cc1nn(C)c2c1C(=O)N(CCN1CCN(c3noc4ccccc34)CC1)CCC2
recordedMeasurement: 0.065 mL/min/mg protein
//
itemSmiles: Cc1nc2c(o1)CCN(CCN1CCC(c3noc4ccccc34)CC1)C2=O
recordedMeasurement: 0.016 mL/min/mg protein
//
itemSmiles: Cc1nc(C)c2c(n1)CCN(CCN1CCC(c3noc4ccccc34)CC1)C2=O
recordedMeasurement: <0.05 mL/min/mg protein
//
itemSmiles: O=C1c2ncccc2CCN1CCN1CCC(c2noc3ccc(F)cc23)CC1
recordedMeasurement: <0.01 mL/min/mg protein
//
itemSmiles: Cc1c2c(nn1C)CCN(CCN1CCN(c3nsc4ccccc34)CC1)C2=O
recordedMeasurement: 0.126 mL/min/mg protein
//
itemSmiles: Cc1nc(C)c2c(=O)n(CCN3CCC(c4noc5ccccc45)CC3)ccc2n1
recordedMeasurement: 0.102 mL/min/mg protein
//
itemSmiles: COc1c2c(nn1C)CCN(CCN1CCN(c3nsc4ccccc34)CC1)C2=O
recordedMeasurement: 0.244 mL/min/mg protein
//
itemSmiles: COc1cc2c(cn1)C(=O)N(CCN1CCC(c3noc4ccccc34)CC1)CC2
recordedMeasurement: <0.01 mL/min/mg protein
//
itemSmiles: Cn1cnc2c1C(=O)N(CCN1CCN(c3nsc4ccccc34)CC1)CCC2
recordedMeasurement: 0.161 mL/min/mg protein
//
itemSmiles: Cc1cncc2c1CCN(CCN1CCC(c3noc4ccccc34)CC1)C2=O
recordedMeasurement: 0.083 mL/min/mg protein

Reference source: patent US10745401B2
